# key: entry, value: Ht
- Species: Rattus norvegicus
- Measurement description: Open TG-GATES - Regimen: Daily Repeat
- Assay type: toxicity, organism-based, Sprague-Dawley
- Design: regimen Daily Repeat, gender Male, age 6 weeks
- Conditions used: in vivo, po, 1000 mg/kg, […], tissue Blood, route gavage, dose level High, time 14 day
// return numeric value only (unit: %, not printed)

Reference set, count: 5
{"columns": ["Structure smiles", "Result"],
 "data": [
  ["CN/C(=N/CCSCc1nc[nH]c1C)NC#N", 43.3],
  ["CCOc1ccc(NC(C)=O)cc1", 43.1],
  ["COC(=O)C1=C(C)NC(C)=C(C(=O)OC)C1c1ccccc1[N+](=O)[O-]", 42.8],
  ["CNC(=C[N+](=O)[O-])NCCSCc1ccc(CN(C)C)o1", 40.3],
  ["O=C(OC[C@H]1O[C@@H](OC(=O)c2cc(O)c(O)c(OC(=O)c3cc(O)c(O)c(O)c3)c2)[C@H](OC(=O)c2cc(O)c(O)c(OC(=O)c3cc(O)c(O)c(O)c3)c2)[C@@H](OC(=O)c2cc(O)c(O)c(OC(=O)c3cc(O)c(O)c(O)c3)c2)[C@@H]1OC(=O)c1cc(O)c(O)c(OC(=O)c2cc(O)c(O)c(O)c2)c1)c1cc(O)c(O)c(OC(=O)c2cc(O)c(O)c(O)c2)c1", 43.2]
]}

Problem: For the molecule Cc1nnc2n1-c1ccc(Cl)cc1C(c1ccccc1Cl)=NC2 , report Ht.
Solution: 43.5
